The origin of these recorded values is patent US20240317847A1.

# Tested on: T1, human IL-11 (human, UniProt P20809 22-199)
# T1 sequence: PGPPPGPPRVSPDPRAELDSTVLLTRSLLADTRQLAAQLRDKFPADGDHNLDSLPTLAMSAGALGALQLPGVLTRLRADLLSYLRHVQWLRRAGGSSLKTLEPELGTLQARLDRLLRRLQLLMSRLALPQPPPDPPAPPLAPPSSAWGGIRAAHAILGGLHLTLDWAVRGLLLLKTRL
# Assay protocol: cell-based or functional assay
The following binders are listed with their measured IC50, RGA 2 values.
State just the number; it will be interpreted in nM.

TPP-31282 (antibody, IgG4, V domains shown) VH: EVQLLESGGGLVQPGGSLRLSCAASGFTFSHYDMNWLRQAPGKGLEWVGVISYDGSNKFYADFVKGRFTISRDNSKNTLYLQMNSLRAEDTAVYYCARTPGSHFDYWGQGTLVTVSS VL: QSVLTQPPSASGTPGQRVTISCSGSSSNIGNNAVNWYQQLPGTAPKLLIYYDNLLPSGVPDRFSGSKSGTSASLAISGLRSEDEADYYCSAWDDSLNGVVFGGGTKLTVL
287
TPP-31303 (antibody, IgG4, V domains shown) VH: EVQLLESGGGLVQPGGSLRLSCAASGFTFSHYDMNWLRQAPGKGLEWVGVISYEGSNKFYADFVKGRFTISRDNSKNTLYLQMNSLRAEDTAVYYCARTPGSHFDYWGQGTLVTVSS VL: QSVLTQPPSASGTPGQRVTISCSGSSSNIGNNAVNWYQQLPGTAPKLLIYYDDLLPSGVPDRFSGSKSGTSASLAISGLRSEDEADYYCSAWDDSLNAVVFGGGTKLTVL
11

Now look at this one.
In: Quick one: IC50, RGA 2 of TPP-31311 (antibody, IgG4, V domains shown) VH: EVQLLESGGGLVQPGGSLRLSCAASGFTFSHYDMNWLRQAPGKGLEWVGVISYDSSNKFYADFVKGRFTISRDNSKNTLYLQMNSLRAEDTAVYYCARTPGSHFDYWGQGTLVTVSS VL: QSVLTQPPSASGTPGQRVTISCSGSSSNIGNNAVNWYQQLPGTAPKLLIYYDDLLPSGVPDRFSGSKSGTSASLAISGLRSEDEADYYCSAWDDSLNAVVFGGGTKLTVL ?
Out: 34
